Source: ChEMBL document CHEMBL1123508

Details: octanol/water
Assign fulfilled whenever Log k' does not fall below 0.02; assign not fulfilled whenever it does.

Please review the entries below; each comes with its answer.
{"compound": "CN1CCN(Cc2ncc([N+](=O)[O-])n2C)CC1", "label_class": "not fulfilled"}
{"compound": "Cc1ncc([N+](=O)[O-])n1CC(O)CO (stereo unspecified)", "label_class": "not fulfilled"}
{"compound": "CCC(CC)C(O)Cn1c([N+](=O)[O-])cnc1C (stereo unspecified)", "label_class": "fulfilled"}

Hello, I need to know if `O=[N+]([O-])c1c[nH]cn1` has measured Log k' not below 0.02. Thanks!
not fulfilled

Please tell me: is the compound `Cc1ncc([N+](=O)[O-])n1CC(=O)N1CCN(C(=O)Cn2c([N+](=O)[O-])cnc2C)CC1` at or over 0.02 in terms of Log k'?
fulfilled

Test whether the compound `Cc1ncc([N+](=O)[O-])n1CC(O)Cn1c([N+](=O)[O-])cnc1C` records Log k' of 0.02 or higher.
fulfilled

Could you please find out whether `Cc1ncc([N+](=O)[O-])n1CCO` has Log k' that meets 0.02 or exceeds it?
not fulfilled

Is Log k' for `Nc1ncc(S(=O)(=O)c2ccc([N+](=O)[O-])cc2)s1` at or above 0.02?
not fulfilled

Is Log k' at least 0.02? Consider `O=[N+]([O-])c1cncn1CCN1CCOCC1`
fulfilled

Textbook exercise: given the entry `Cn1c([N+](=O)[O-])cnc1C1CC1` , state whether its Log k' is greater than or equal to 0.02.
fulfilled

Does Log k' meet or surpass 0.02 for `CCN(CC)CCOCCn1c([N+](=O)[O-])cnc1C` ?
fulfilled
